B1: TNNI2 (parent)
chain: DWRKNIEEKSGMEGRKKMFESES

# Variants of: B1
# Protocol description: protein stability index of a GFP-peptide fusion (GPS, HEK-293T) (PSI 1-6); higher = more stable;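 also: lentivirally expressed fusions sorted by FACS into six bins by GFP to DsRed ratio, PSI derived from sequencing read proportions per bin multiplied by bin number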
# Measurement context: c terminus: native
Property name: protein stability index
# print the numeric value only

Input line: Dear colleague, I am looking for the recorded protein stability index of the following variant: `G11H`
Output line: 1.76

Input line: Same for `K4Y`
Output line: 2.56

Input line: Same for `F19I`
Output line: 4.22

Input line: Same for `I6S`
Output line: 2.54

Input line: Same for `S21D`
Output line: 5.47

Input line: Same for `M12S`
Output line: 2.5

Input line: Same for `S10N`
Output line: 2.54

Input line: Same for `G11M`
Output line: 1.9

Input line: Same for `M12D`
Output line: 2.52

Input line: Same for `E20Q`
Output line: 3.54

Input line: Same for `K9I`
Output line: 2.39

Input line: Same for `S10M`
Output line: 2.16

Input line: Same for `D1C`
Output line: 1.75

Input line: Same for `D1S`
Output line: 1.79

Input line: Same for `S10I`
Output line: 2.89

Input line: Same for `D1K`
Output line: 2.01

Input line: Same for `K4D`
Output line: 3.23

Input line: Same for `G14F`
Output line: 1.93

Input line: Same for `R15M`
Output line: 1.51

Input line: Same for `K17I`
Output line: 3.32

Input line: Same for `M18P`
Output line: 4.59

Input line: Same for `R15T`
Output line: 2.7

Input line: Same for `N5F`
Output line: 2.43

Input line: Same for `R15K`
Output line: 3.5

Input line: Same for `F19P`
Output line: 4.51

Input line: Same for `S21H`
Output line: 2.9

Input line: Same for `E8A`
Output line: 2.2

Input line: Same for `K4P`
Output line: 2.61

Input line: Same for `N5L`
Output line: 2.57

Input line: Same for `S23G`
Output line: 3.42

Input line: Same for `M12C`
Output line: 2.71

Input line: Same for `M18L`
Output line: 1.13

Input line: Same for `R15Q`
Output line: 3.12

Input line: Same for `E20G`
Output line: 4.73

Input line: Same for `M18K`
Output line: 2.78

Input line: Same for `G11Y`
Output line: 1.45

Input line: Same for `S21Y`
Output line: 4.05

Input line: Same for `G14K`
Output line: 1.31

Input line: Same for `S10R`
Output line: 2.55

Input line: Same for `E22W`
Output line: 3.86

Input line: Same for `E22S`
Output line: 5.13

Input line: Same for `N5Y`
Output line: 1.62

Input line: Same for `M18G`
Output line: 5.42

Input line: Same for `E7F`
Output line: 1.77

Input line: Same for `E13Y`
Output line: 2.15

Input line: Same for `K16N`
Output line: 1.95

Data provenance is the supplement of paper PMC10567573.
